# condition.parameters: 305.65 K; 101 kPa; Liquid; Sing-around technique in a fixed-path interferometer
quantity.kind: speed of sound (m/s)
Provide the reading as a plain figure in m/s.

molecule	quantity.kind	measured.result
CCOC(C)(C)C	speed of sound	997.52
Cc1ccc(C)cc1	speed of sound	1275.6
Cc1ccccc1C	speed of sound	1310.8
COC(C)(C)C	speed of sound	1002.4

Kindly review the next compound as well.
Request: Could you share which speed of sound value was measured for "Cc1cccc(C)c1" ?
Response: 1290

---

# condition.parameters: 288.15 K; 101 kPa; Liquid; Sing-around technique in a fixed-path interferometer
quantity.kind: speed of sound (m/s)
All answers are understood in m/s, so give the number only.

Sample answers from the record:
molecule	unit.descriptor	speed of sound
Cc1cccc(C)c1 [1,3-dimethylbenzene]	m/s	1362.7
COC(C)(C)C [2-methoxy-2-methylpropane]	m/s	1083.4
Cc1ccccc1C [1,2-dimethylbenzene]	m/s	1381.3
Cc1ccc(C)cc1 [1,4-dimethylbenzene]	m/s	1347.9

Proceeding to the next molecule to report its speed of sound.
Request: Looking for the measured speed of sound of CCOC(C)(C)C [2-ethoxy-2-methylpropane] , can you help?
Response: 1076.4

---

Reported mass density values are given for each entry in this list.
# condition.parameters: 290.65 K; 101 kPa; Liquid
Response body: numeric value in kg/m3, unit text excluded.

Example compounds with recorded mass density:
molecule	mass density [kg/m3]
CCOC(C)(C)C	742.482
COC(C)(C)C	742.259
Cc1ccccc1C	881.265
Cc1ccc(C)cc1	863.184

Turning to the following compound.
Request: Suppose we examine the compound "Cc1cccc(C)c1" ; what mass density value has been reported?
Response: 866.318

---

# condition.parameters: 318.15 K; 101 kPa; Liquid; Sing-around technique in a fixed-path interferometer
± gives the expanded uncertainty stated by the source.
quantity.kind: speed of sound
I'd appreciate it if you included the unit after the number.

molecule	quantity.kind	measured.result
COC(C)(C)C	speed of sound	945.54 ± 2.2 m/s
Cc1cccc(C)c1	speed of sound	1239.3 ± 2.2 m/s
CCOC(C)(C)C	speed of sound	942.67 ± 2.2 m/s
Cc1ccc(C)cc1	speed of sound	1228.1 ± 2.2 m/s

Moving on to another compound below.
Request: What value of speed of sound has been reported for the following compound? "Cc1ccccc1C"
Response: 1260.6 ± 2.2 m/s

---

# condition.parameters: 320.65 K; 101 kPa; Liquid; Sing-around technique in a fixed-path interferometer
Numbers after ± are expanded uncertainties.
quantity.kind: speed of sound

Illustrative cases are given below, each with its answer.
molecule	measured.result
Cc1ccc(C)cc1	1220.5 ± 2.2 m/s
COC(C)(C)C	934.24 ± 2.2 m/s
CCOC(C)(C)C	931.73 ± 2.2 m/s

// switching to the query compound
Request: Query (compound): "Cc1cccc(C)c1" ; field requested: speed of sound
Response: 1229.3 ± 2.2 m/s
